target-desc: Serine/threonine-protein kinase Chk2 (Homo sapiens)
assay-conditions: at 0.1 µM
Description: GSK_PKIS: CHEK2 mean inhibition at 0.1 uM [Nanosyn]
Quick reference: inhibition of the listed items.
Reply with just the number (in %).

Worked cases, answers included:
COC(=O)Nc1nc2ccc(S(=O)(=O)c3ccc(NC(=O)Nc4cc(C(F)(F)F)ccc4F)cc3)cc2[nH]1; 1.62
COc1ccc(-c2cc3c(N)ncnc3o2)cc1; -1.09

API: the following record is the query input.
// returns reported inhibition for input c1ccc(COc2ccc(Nc3ncnc4ccc(-c5ccco5)cc34)cc2)cc1
1.08

---

target-desc: Platelet-derived growth factor receptor alpha (Homo sapiens)
assay-conditions: at 0.1 µM
Description: GSK_PKIS: PDGFRA mean inhibition at 0.1 uM [Nanosyn]
Each entry below lists one item and its recorded inhibition value.
Your answer is read as %, so omit the unit and give the number.

Please review the entries below; each comes with its answer.
N#Cc1c(NC(=O)c2ccc(F)cc2)sc2c1CCCC2; 5.56
c1cc(-c2cnn3nc(N4CCOCC4)ccc23)nc(NC2CC2)n1; 31.9
Fc1ccc(-c2nn3ccccc3c2-c2ccncc2)cc1; 1.93
CN1CCC(n2cnc(-c3ccc(F)cc3)c2-c2ccnc(Nc3ccccc3)n2)CC1; 8.81
CN1CCC(n2cnc(-c3ccc(F)cc3)c2-c2ccnc(N)n2)CC1; 6.86

inhibition lookup needed for CCn1c(-c2nonc2N)nc2cnc(Oc3cccc(NC(=O)c4ccc(N(C)C)cc4)c3)cc21 , thanks.
4.44

---

target-desc: Serine/threonine-protein kinase PAK 2 (Homo sapiens);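 also: values are mean percent inhibition of PAK2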
assay-conditions: at 0.1 µM
Each record here notes measured inhibition.

As a guide, the following entries are already answered.
COc1ccc(CNC(=O)c2ccc(-c3cc(-c4nnc(C)o4)ccc3C)cc2)cc1; 0.61%
[O-][S+]1CCN(Cc2ccc(-c3ccc4ncnc(Nc5ccc(OCc6cccc(F)c6)c(Cl)c5)c4c3)o2)CC1; 2.04%
Clc1ccc(-c2nn3ncccc3c2-c2ccnc(Nc3ccccc3)n2)cc1; 1.12%
CC1=C(C(=O)Nc2cc(Cl)c3[nH]ncc3c2)C(c2ccc(C(F)(F)F)cc2)CC(=O)N1 (centres undefined); 0.71%

Name the recorded inhibition for COc1ccc(-c2oc3ncnc(N)c3c2-c2ccc(NC(=O)Nc3cc(C(F)(F)F)ccc3F)cc2)cc1 .
3.2%

Looking for the measured inhibition of CN(C)CCOc1ccc(-c2nc(-c3ccncc3)c(-c3ccc4c(c3)CC/C4=N\O)[nH]2)cc1 , can you help?
2.66%

Look at this compound and give its reported inhibition. Nc1nc(-c2cccc(Cl)c2)c(-c2ccc3ncccc3n2)s1
2.17%

Need inhibition of Fc1ccc(-c2nn3ncccc3c2-c2ccnc(Nc3ccc4c(c3)OCCO4)n2)cc1 , thanks.
1.46%

Bench note: what inhibition did COc1cc(/C=N/Nc2ncnc3[nH]ncc23)ccc1O show?
2.22%

---

target-desc: Protein kinase C gamma type (Homo sapiens) (UniProt P05129);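 also: values are mean percent inhibition of PKC gamma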
assay-conditions: at 0.1 µM
measured-parameter: inhibition (%)
Express your answer in %, writing the number without its unit.

Known results for compounds:
CCOc1ccc2c(-c3ccnc(Nc4cccc(C(F)(F)F)c4)n3)cnn2n1; 4.45
COc1cccc(-c2c[nH]c3c(N/N=C/c4ccncc4)ncnc23)c1; 2.27
COc1ccc(-c2nn3ncccc3c2-c2ccnc(Nc3ccc4c(c3)OCCO4)n2)cc1; 0.61
CC(=O)NCc1cccc(C#Cc2cncnc2Nc2ccc(OCc3cccc(F)c3)c(Cl)c2)c1; -0.73
c1ccc(-c2nc3n(c2-c2ccc4c(c2)OCO4)CCC3)nc1; 0
CC(C)COC(=O)c1ccc2c(c1)/C(=C/Nc1ccc(S(N)(=O)=O)cc1)C(=O)N2; -1.87
c1ccc(COc2ccc(Nc3ncnc4ccc(-c5ccco5)cc34)cc2)cc1; 0.73
COc1ccc2c(-c3ccnc(Nc4cccc(OC(F)(F)F)c4)n3)cnn2n1; 5.4

Which inhibition is reported for this compound? CCn1c(-c2nonc2N)nc2c(C#CC(C)(C)O)ncc(OC3CCNCC3)c21
35.1

Request the reported inhibition associated with CC(=O)Nc1cccc(C#Cc2cncnc2Nc2ccc(OCc3cccc(F)c3)c(Cl)c2)c1
3.94

---

# inhibition values compiled below
target-desc: RAC-alpha serine/threonine-protein kinase (Homo sapiens);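 also: reported values are mean inhibition figures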
assay-conditions: at 0.1 µM
// return numeric value only (unit: %, not printed)

Recorded results for 8 compounds are shown here.
CCn1c(-c2nonc2N)nc2c(C#CC(C)(C)O)ncc(OC3CCNCC3)c21; 70.1
COc1cccc(-n2ncc3c(N/N=C/c4ccc(F)cc4)ncnc32)c1; 0.98
COc1ccc2c(-c3ccnc(Nc4cccc(OC(F)(F)F)c4)n3)cnn2n1; 0.95
CC(C)COC(=O)c1ccc2c(c1)/C(=C/Nc1ccc(S(N)(=O)=O)cc1)C(=O)N2; 1.6
Nc1ncc(-c2cccc(S(N)(=O)=O)c2)c2scc(-c3ccc(F)c(Cl)c3)c12; 0.6
CS(=O)(=O)CCNCc1ccc(-c2ccc3ncnc(Nc4ccc(OCc5ccccc5)c(C(F)(F)F)c4)c3c2)o1; 1.54
COc1ccc2[nH]c3c4[nH]c5ccc(OC)cc5c4c4c(c3c2c1)C(=O)NC4=O; 0.56
COc1ccc(-c2cc(-c3c[nH]nc3-c3ccccn3)ccn2)cc1; 0.93

I'd like to know its inhibition. The compound in question is CN(C)CCOc1ccc(-c2nc(-c3ccncc3)c(-c3ccc4c(c3)CC/C4=N\O)[nH]2)cc1
0.74

---

The reader will find reported inhibition values listed item by item below.
target-desc: Hepatocyte growth factor receptor (Homo sapiens);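 also: reported values are means of MET inhibition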
assay-conditions: at 0.1 µM
Write the value in % as a bare number.

# count of solved cases: 4
CNC(=O)c1cccc(C#Cc2cncnc2Nc2ccc(OCc3cccc(F)c3)c(Cl)c2)c1; 3.13
COc1cccc(-c2c[nH]c3c(N/N=C/c4ccncc4)ncnc23)c1; 4.89
CCN1CCC(CC(=O)Nc2n[nH]c3nnc(-c4cccc(F)c4F)cc23)CC1; 4.54
COC(=O)Nc1nc2ccc(Oc3ccc(NC(=O)Nc4cccc(Cl)c4)cc3)cc2[nH]1; 9.7

Consider the compound shown here: CCc1nn2ncccc2c1-c1ccnc(NC2CC2)n1 What is its recorded inhibition?
6.93

Requested read-out: inhibition. Entry: CCCN(CCS(C)(=O)=O)Cc1ccc(-c2ccc3ncnc(Nc4ccc(OCc5cccc(F)c5)c(Cl)c4)c3c2)o1
2.91

Which inhibition value belongs to O=C(Nc1n[nH]c2cc(-c3ccc(F)cc3)ccc12)C1CC1 ?
1.03

Given the entry Nc1nc(-c2ccc(F)cc2)c(-c2ccc3ncccc3n2)s1 , report its measured inhibition.
4.07

Which inhibition reading was recorded for the compound COc1ccc(CNC(=O)c2ccc(-c3cc(-c4nnc(C)o4)ccc3C)cc2)cc1 ?
11.8

Quick one: inhibition of c1cc(-c2cnn3nc(N4CCOCC4)ccc23)nc(NC2CC2)n1 ?
-2.37

Would you kindly share the measured inhibition for N#Cc1c(NC(=O)c2ccc(F)cc2)sc2c1CCCC2 ?
1

Reported inhibition, compound N#Cc1c(NC(=O)CN2CCOCC2)sc2c1CCCC2 : ____
7.91

Could you share which inhibition value was measured for CCNC(=O)O[C@H]1CN[C@H](C#Cc2cc3ncnc(Nc4ccc(OCc5cccc(F)c5)c(Cl)c4)c3s2)C1 ?
3.78

---

target-desc: G protein-coupled receptor kinase 6 (Homo sapiens);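 also: values are averaged percent inhibition of GRK6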
assay-conditions: at 1 µM
measured-parameter: inhibition (%)
Please state the figure in %; there is no need to write the unit.

Consider the compound shown here: NS(=O)(=O)c1ccc(Nc2ncc(-c3ccccc3)o2)cc1 What is its recorded inhibition?
3.06

Fill blank: measured inhibition of the compound c1ccc(COc2ccc(Nc3ncnc4ccc(-c5ccco5)cc34)cc2)cc1 is ____.
4.75

---

target-desc: Mitogen-activated protein kinase kinase kinase kinase 2 (Homo sapiens);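 also: values given as mean percent inhibition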
assay-conditions: at 0.1 µM
measured-parameter: inhibition (%)
Answer in %, number only, no unit symbol.

Illustrative cases are given below, each with its answer.
CS(=O)(=O)CCNCc1ccc(-c2ccc3ncnc(Nc4ccc(OCc5ccccc5)c(C(F)(F)F)c4)c3c2)o1; 0.85
c1ccc(COc2ccc(Nc3ncnc4ccc(-c5ccco5)cc34)cc2)cc1; 2.84
N#Cc1c(NC(=O)CN2CCOCC2)sc2c1CCCC2; 1.71
CNC(=O)c1cccc(C#Cc2cncnc2Nc2ccc(OCc3cccc(F)c3)c(Cl)c2)c1; -1.31

Pending molecule:
Quick check: inhibition of COc1cccc(-n2ncc3c(N/N=C/c4ccc(F)cc4)ncnc32)c1 ?
0.43

---

target-desc: Serine/threonine-protein kinase Chk2 (Homo sapiens)
assay-conditions: at 1 µM
measured-parameter: inhibition

Take a look at these entries with their results.
COc1cccc(-c2c[nH]c3c(N/N=C/c4ccncc4)ncnc23)c1; 6.91%
CNC(=O)c1cccc(C#Cc2cncnc2Nc2ccc(OCc3cccc(F)c3)c(Cl)c2)c1; 2.35%
COc1cc2c(cc1Nc1nc(Nc3ccsc3C(N)=O)c3cc[nH]c3n1)N(C(=O)CN(C)C)CCC2(C)C; 21.1%

Which inhibition value is on record for COc1cc(N2CCN(C(C)C)CC2)ccc1Nc1nc(Nc2ccc(F)cc2C(N)=O)c2cc[nH]c2n1 ?
79.1%

What inhibition value was documented for this compound, CNC(=O)c1cncc(/C=C/c2ccccc2Cl)c1 ?
1.77%

# lookup: inhibition of CN(C)CCOc1ccc(-c2nc(-c3ccncc3)c(-c3ccc4c(c3)CC/C4=N\O)[nH]2)cc1
4.06%

Query: inhibition; subject: CCn1c(-c2nonc2N)nc2ccccc21
1.9%

GET /values?readout=inhibition&item= O=C(Nc1n[nH]c2cc(-c3ccc(F)cc3)ccc12)C1CC1
6.67%

Given COc1cc(Nc2nccc(Nc3ccc4c(C)n[nH]c4c3)n2)cc(OC)c1OC , state its recorded inhibition.
9.02%

I am curious: what inhibition value has been reported for CCn1c(-c2nonc2N)nc2cnc(Oc3cccc(NC(=O)c4ccc(N(C)C)cc4)c3)cc21 ?
8.31%
